Assignment: determine reported normalized RNA/DNA level without ligand (log10) for the given variants.
B1: library; a variant is named by its letters at N, in order (parent)
chain: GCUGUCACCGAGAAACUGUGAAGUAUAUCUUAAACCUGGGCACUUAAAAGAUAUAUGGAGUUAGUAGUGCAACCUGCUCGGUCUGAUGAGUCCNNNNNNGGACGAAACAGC

Variants of: B1
ASSAY_PROCEDURE: normalized RNA/DNA level without ligand (relative to sTRSVctl = 100) (log10 (% of sTRSVctl)); HEK293T; ligand: cyclic di-GMP (c-di-GMP-II aptamer); higher = less ribozyme self-cleavage, higher mRNA level
CONDITION_CONTEXT: reporter: mCherry (pCS4076), ligand present: no
The answer should be written as a number, with no unit following it.

Find the measured normalized RNA/DNA level without ligand (log10) of CGGCGA and report it.
1.49

Using known records, supply normalized RNA/DNA level without ligand (log10) for GUAGUA
1.66

Using the record for AUAGGG , state its measured normalized RNA/DNA level without ligand (log10).
1.41

Provide normalized RNA/DNA level without ligand (log10) value for the following variant: UUCUGU
1.73

Name the recorded normalized RNA/DNA level without ligand (log10) of the variant listed here: UGAGAC
1.71

Look up normalized RNA/DNA level without ligand (log10) of UAUACU and report it.
1.72

Please report the measured normalized RNA/DNA level without ligand (log10) for GUCAGA
1.56

Item ACAAGG : provide normalized RNA/DNA level without ligand (log10)
1.33

Provide normalized RNA/DNA level without ligand (log10) value for the following variant: UUACCC
1.8

In one line, give reported normalized RNA/DNA level without ligand (log10) of the entry AGCAAG .
1.51

Look up normalized RNA/DNA level without ligand (log10) of AUAACA and report it.
1.62

# return recorded normalized RNA/DNA level without ligand (log10) for input AUAGGC
1.55

Given UUGCUA , respond with its normalized RNA/DNA level without ligand (log10).
1.62

Recall and state the measured normalized RNA/DNA level without ligand (log10) for CUGUCC .
1.79

Dear colleague, please send me the reported normalized RNA/DNA level without ligand (log10) for CUCUUA when you can.
1.46

Respond only with normalized RNA/DNA level without ligand (log10) recorded for UAGCGG
1.82

Provide only the value of recorded normalized RNA/DNA level without ligand (log10) for GCCUUC
1.61

Please list normalized RNA/DNA level without ligand (log10) recorded for the variant AGGAUG
1.48

Specify measured normalized RNA/DNA level without ligand (log10) for CUAGCU .
1.72

Read off the recorded normalized RNA/DNA level without ligand (log10) for CCCAAA
1.48

Identify measured normalized RNA/DNA level without ligand (log10) corresponding to GUGAGA
1.41

Tell us which normalized RNA/DNA level without ligand (log10) value is on record for ACCAAU
1.48

Tell me normalized RNA/DNA level without ligand (log10) reported for AAGGGC
1.61

Give the measured normalized RNA/DNA level without ligand (log10) for CCGAAA
1.31

Give the value of normalized RNA/DNA level without ligand (log10) reported for the following: GCAACU
1.58

Provide only the value of recorded normalized RNA/DNA level without ligand (log10) for AAUGGC
1.65

Give reported normalized RNA/DNA level without ligand (log10) value for CUGGUG
1.39

Give reported normalized RNA/DNA level without ligand (log10) value for GCCCCU
1.76

Write down normalized RNA/DNA level without ligand (log10) measured for item ACACGG
1.53

Please give the documented normalized RNA/DNA level without ligand (log10) of CUUGCG
1.78

Specify measured normalized RNA/DNA level without ligand (log10) for AGUUAA .
1.52

Answer with reported normalized RNA/DNA level without ligand (log10) of AGACUG
1.75

Assign normalized RNA/DNA level without ligand (log10) to the following record: UCCCAG
1.79

Read the entry CCCCUU and write its reported normalized RNA/DNA level without ligand (log10).
1.65

Item CUCUGC : provide normalized RNA/DNA level without ligand (log10)
1.79

For the variant CUAGUA , report normalized RNA/DNA level without ligand (log10).
1.56

Return value of normalized RNA/DNA level without ligand (log10) for input UUCAAG , no commentary.
1.69

Please indicate normalized RNA/DNA level without ligand (log10) recorded for CCGUGG
1.53

Tell us which normalized RNA/DNA level without ligand (log10) value is on record for ACCAGC
1.63

In one line, give reported normalized RNA/DNA level without ligand (log10) of the entry AGUUUU .
1.79

Give the reported value of normalized RNA/DNA level without ligand (log10) for this record: UGGAGG
1.7

Item UUAAGU : provide normalized RNA/DNA level without ligand (log10)
1.71

// Input: GGAUCA . Output its normalized RNA/DNA level without ligand (log10) only.
1.63

Report normalized RNA/DNA level without ligand (log10) for UCGUGU
1.62

Report normalized RNA/DNA level without ligand (log10), nothing else, for this variant: AAACAG
1.55

In one line, give reported normalized RNA/DNA level without ligand (log10) of the entry CCGGAA .
1.28
